From: patent US20260265184A1

experiment_description: Solvent solubility evaluation of the degradable cross-linking agents
Assay type: physicochemical
test_parameters: 0.5 mL solvent added to 2 mg; visual; room temperature, then heat gun
reported_property: Solvent solubility, Isopropanol
Field format: numeric only.

Here are 4 compounds together with their reported answers.
{"molecule": "C=CCOC(=O)NNC(=O)CCCO", "readout_value": 3}
{"molecule": "C=CCNC(=O)NNC(=O)CCCCCCCCC(=O)NNC(=O)NCC=C", "readout_value": 1}
{"molecule": "O=C(CCCCCOC(=O)NNC(=O)OCCO)NNC(=O)c1cccc(C(=O)NNC(=O)CCCCCOC(=O)NNC(=O)OCCO)c1", "readout_value": 0}
{"molecule": "O=C(CCS)NNC(=O)NCCCCCCNC(=O)N(CCCCCCNC(=O)NNC(=O)CCS)C(=O)NCCCCCCNC(=O)NNC(=O)CCS", "readout_value": 1}

Proceed to the following item.
Retrieve Solvent solubility, Isopropanol measured for C=C(C)C(=O)OCCNC(=O)NNC(=O)c1cc(O)cc(O)c1 and print it.
0
